Test system: MiaPaCa-2 cells
Protocol Notes: MiaPaCa-2 Cell proliferation assay in 3D culture (CCK8)
Format: cell-based
Experimental Context: Homo sapiens, MIA PaCa-2, 120 h; 3D spheroid culture, 5 days with compound, CCK8 readout
Reported IC50 by item:

# count of solved cases: 6
Cc1nc(N2CCC3(CC2)CO[C@@H](C)[C@H]3N)c(CO)nc1Sc1ccnc(NC(=O)NS(=O)(=O)c2ccccc2)c1Cl    ≤ 500 nM
Cc1nc(N2CCC3(CC2)CO[C@@H](C)[C@H]3N)c(CO)nc1Sc1cccc(NC(=O)NS(=O)(=O)c2ccccc2)c1Cl    ≤ 500 nM
C[C@@H]1OCC2(CCN(c3cnc(Sc4cccc(NC(=O)NS(=O)(=O)c5cccc(F)c5)c4Cl)cn3)CC2)[C@@H]1N    ≤ 500 nM
C[C@@H]1OCC2(CCN(c3cnc(Sc4ccnc(NC(=O)NS(=O)(=O)c5ccccc5)c4F)cn3)CC2)[C@@H]1N    ≤ 500 nM
C[C@@H]1OCC2(CCN(c3ncc(Sc4ccnc(NC(=O)NS(=O)(=O)c5ccccc5)c4Cl)c4nncn34)CC2)[C@@H]1N    500 to 5000 nM
C[C@@H]1OCC2(CCN(c3cnc(Sc4cccc(NC(=O)NS(=O)(=O)N5CCC(N)C5)c4Cl)cn3)CC2)[C@@H]1N (some centres unmarked)    ≤ 500 nM

Query: Identify measured IC50 corresponding to C[C@@H]1OCC2(CCN(c3cnc(Sc4cccc(NC(=O)NS(=O)(=O)C5CC5)c4Cl)cn3)CC2)[C@@H]1N
Reply: ≤ 500 nM

Query: Identify measured IC50 corresponding to C[C@@H]1OCC2(CCN(c3cnc(Sc4cccc(NC(=O)NS(=O)(=O)C5CCCC5)c4Cl)cn3)CC2)[C@@H]1N
Reply: ≤ 500 nM

Query: Identify measured IC50 corresponding to CC1(N)CCN(c2cnc(Sc3cccc(NC(=O)NS(=O)(=O)c4ccccc4)c3Cl)c(N)n2)CC1
Reply: ≤ 500 nM

Query: Identify measured IC50 corresponding to CC1(CN)CCN(c2cnc(Sc3cccc(NC(=O)NS(=O)(=O)C4CC4)c3Cl)c(N)n2)CC1
Reply: ≤ 500 nM

Query: Identify measured IC50 corresponding to C[C@@H]1OCC2(CCN(c3cnc(Sc4cccc(S(=O)(=O)NC(=O)NC5CCCC5)c4Cl)cn3)CC2)[C@@H]1N
Reply: ≤ 500 nM

Query: Identify measured IC50 corresponding to N[C@@H]1c2ncccc2CC12CCN(c1cnc(Sc3ccnc(NC(=O)NS(=O)(=O)c4ccccc4)c3Cl)cn1)CC2
Reply: 500 to 5000 nM

Query: Identify measured IC50 corresponding to C[C@@H]1OCC2(CCN(c3cnc(Sc4cccc(NC(=O)NS(=O)(=O)N5CCCCC5)c4Cl)cn3)CC2)[C@@H]1N
Reply: ≤ 500 nM

Query: Identify measured IC50 corresponding to CC1(CN)CCN(c2cnc(Sc3cccc(C(=O)NS(=O)(=O)c4cccnc4)c3Cl)cn2)CC1
Reply: 500 to 5000 nM
